Numbers sourced from paper PMC8688955.

# assay.system: CI-AMPARs (Rattus norvegicus, UniProt P19491, Q607R)
# Construct: activity against native calcium-permeable AMPA receptors (CP-AMPARs) and calcium-impermeable AMPA receptors (CI-AMPARs); endogenous in cells; host or cells: acutely isolated pyramidal neurons from the CA1 area of Wistar rat hippocampal slices
# Sequence (P19491 22-883 Q607R): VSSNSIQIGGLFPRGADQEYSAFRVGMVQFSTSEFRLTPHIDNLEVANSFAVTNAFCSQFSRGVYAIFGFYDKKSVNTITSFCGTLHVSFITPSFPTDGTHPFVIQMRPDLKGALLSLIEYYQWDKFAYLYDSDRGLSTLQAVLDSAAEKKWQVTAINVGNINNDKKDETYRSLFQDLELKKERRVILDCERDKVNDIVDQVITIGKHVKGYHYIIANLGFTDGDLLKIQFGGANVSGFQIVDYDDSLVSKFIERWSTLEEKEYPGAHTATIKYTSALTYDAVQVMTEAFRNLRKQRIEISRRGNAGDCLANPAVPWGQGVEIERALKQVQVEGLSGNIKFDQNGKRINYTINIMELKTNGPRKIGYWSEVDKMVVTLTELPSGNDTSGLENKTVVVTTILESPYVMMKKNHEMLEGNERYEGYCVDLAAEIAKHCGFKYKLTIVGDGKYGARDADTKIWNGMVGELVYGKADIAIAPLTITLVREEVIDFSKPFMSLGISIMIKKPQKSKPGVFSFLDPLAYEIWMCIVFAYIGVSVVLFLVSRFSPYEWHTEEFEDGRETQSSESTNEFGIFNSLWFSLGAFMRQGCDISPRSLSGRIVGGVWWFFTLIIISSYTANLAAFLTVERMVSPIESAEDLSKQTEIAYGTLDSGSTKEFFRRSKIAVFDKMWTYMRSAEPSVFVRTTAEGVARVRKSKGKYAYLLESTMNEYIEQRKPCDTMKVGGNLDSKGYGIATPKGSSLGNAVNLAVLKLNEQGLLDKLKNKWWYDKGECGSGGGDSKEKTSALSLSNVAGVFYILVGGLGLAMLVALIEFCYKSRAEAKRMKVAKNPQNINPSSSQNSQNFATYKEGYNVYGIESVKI
# assay.method.text: Whole-cell patch-clamp of kainate-induced currents in isolated hippocampal CA1 pyramidal neurons
# Assay type: cell-based, Wistar rat
# test.settings: 300 µM compound; read-out: percentage of inhibition at 300-µM concentration
property.measured: inhibition at 300 µM

Quick one: give me inhibition at 300 µM for each item below, same order please.
1. O=C1NC(=O)C(Cc2ccccc2)N1 (centres unmarked) [5-benzylhydantoin]
2. CCC1(C)CC(=O)NC1=O (centres unmarked) [ethosuximide]
3. O=C1CNC(=O)N1 [hydantoin]
4. CCC1(c2ccccc2)C(=O)NCNC1=O [primidone]
5. O=C1NC(=O)C(c2ccccc2)(c2ccccc2)N1 [Phenytoin]

Result:
1: ≤ 20%; 2: ≤ 20%; 3: ≤ 20%; 4: ≤ 20%; 5: ≥ 80%
